Biological target: T1, human latent myostatin (human, UniProt O14793 25-266; O14793 267-375)
T1 construct: non-covalent complex of two propeptides and the mature homodimer; also called human myostatin latent form
T1 sequence 1: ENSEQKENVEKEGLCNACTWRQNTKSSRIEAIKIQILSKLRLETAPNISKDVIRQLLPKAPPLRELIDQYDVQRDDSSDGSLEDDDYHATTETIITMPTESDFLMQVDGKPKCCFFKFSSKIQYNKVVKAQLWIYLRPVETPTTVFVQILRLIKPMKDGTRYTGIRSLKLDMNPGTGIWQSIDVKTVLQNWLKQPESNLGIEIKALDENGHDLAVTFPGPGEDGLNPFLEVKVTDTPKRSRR
T1 sequence 2: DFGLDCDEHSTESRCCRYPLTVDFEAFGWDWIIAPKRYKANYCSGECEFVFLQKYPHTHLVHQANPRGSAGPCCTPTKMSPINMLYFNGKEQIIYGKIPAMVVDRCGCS
Test: SPR 37C pH5.8; pH 5.8
Measured Kd, listed per entry for reference.
Kindly provide the numeric value in nM only, without the unit symbol.

MS_M103240H1246-SG1/M103202L1045-SK1 (antibody, human IgG1, kappa, V domains shown, also called MS1032LO25-SG1) VH: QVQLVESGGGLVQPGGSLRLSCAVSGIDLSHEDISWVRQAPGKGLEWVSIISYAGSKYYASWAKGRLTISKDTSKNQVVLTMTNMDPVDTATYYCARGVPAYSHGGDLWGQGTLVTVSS VL: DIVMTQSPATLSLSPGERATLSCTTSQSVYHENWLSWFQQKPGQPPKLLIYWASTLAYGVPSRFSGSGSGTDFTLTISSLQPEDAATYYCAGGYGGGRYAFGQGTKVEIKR
25.5

Attention now shifts to the item below.
Return reported Kd. Input binder: MS_M103205H795-SG1/M103202L1060-SK1 (antibody, human IgG1, kappa, V domains shown, also called MS1032LO24-SG1) VH: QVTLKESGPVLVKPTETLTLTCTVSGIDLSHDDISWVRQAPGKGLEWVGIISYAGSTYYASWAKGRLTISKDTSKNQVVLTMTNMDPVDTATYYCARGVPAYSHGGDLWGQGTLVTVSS VL: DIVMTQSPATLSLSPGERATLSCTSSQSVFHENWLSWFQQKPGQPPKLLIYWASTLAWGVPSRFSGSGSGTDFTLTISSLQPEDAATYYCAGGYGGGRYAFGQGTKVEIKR
1.52
